Origin of values: the supplement of paper PMC9112550

# Test system: Escherichia coli TOP10
# Assay text: shrunken log2 fold change of peptide-encoding DNA abundance (4.5 h post-induction vs induction); higher = less antimicrobial activity (less host growth inhibition)
# Condition set: time post-induction: 4.5 h; library: site-saturation at positions 5, 18, 19, 20
Quick rule for you: shrunken log2 fold change at 0.01 or higher means y, lower means n.

>  <Entry sequence>
RRIRMRPPRLPRPRPRPAGSPRP

>  <Cat>
y

$$$$
>  <Entry sequence>
RRIRVRPPRLPRPRPRPNEAPRP

>  <Cat>
n

$$$$
>  <Entry sequence>
RRIRGRPPRLPRPRPRPDDIPRP

>  <Cat>
y

$$$$

Could you tell me if the measured shrunken log2 fold change of RRIRVRPPRLPRPRPRPNESPRP reaches 0.01 or more?
n

Now the same for RRIRSRPPRLPRPRPRPKNCPRP
n

# iterate: RRIRARPPRLPRPRPRPPYTPRP
y

Follow-up entry: RRIRKRPPRLPRPRPRPNCEPRP
y

Try RRIRFRPPRLPRPRPRPTGMPRP next.
n

Proceed to RRIRSRPPRLPRPRPRPWLTPRP
n

What do you get for RRIRLRPPRLPRPRPRPTHTPRP ?
n

Then RRIRPRPPRLPRPRPRPEQIPRP ?
y

====

# Tested on: Escherichia coli TOP10
# Assay text: shrunken log2 fold change of peptide-encoding DNA abundance (4.5 h post-induction vs induction); higher = less antimicrobial activity (less host growth inhibition)
# Condition set: time post-induction: 4.5 h; library: site-saturation at positions 5, 18, 19, 20
Label true when shrunken log2 fold change is at or above -0.01; anything below gets false.

>  <Entry sequence>
RRIRNRPPRLPRPRPRPDVDPRP

>  <Cat>
true

$$$$

Evaluate RRIRFRPPRLPRPRPRPGVGPRP : shrunken log2 fold change at minimum -0.01?
true

Try RRIRKRPPRLPRPRPRPKRFPRP next.
false

====

Overview of recorded shrunken log2 fold change for various sequences
# Test system: Escherichia coli TOP10
# Assay text: shrunken log2 fold change of peptide-encoding DNA abundance (4.5 h post-induction vs induction); higher = less antimicrobial activity (less host growth inhibition)
# Condition set: time post-induction: 4.5 h; library: site-saturation at positions 5, 18, 19, 20
Just the number.

>  <Entry sequence>
RRIRTRPPRLPRPRPRPDDEPRP

>  <Assay target>
Escherichia coli TOP10

>  <shrunken log2 fold change>
0.0101

$$$$
>  <Entry sequence>
RRIRNRPPRLPRPRPRPDRPPRP

>  <Assay target>
Escherichia coli TOP10

>  <shrunken log2 fold change>
-0.151

$$$$
>  <Entry sequence>
RRIRQRPPRLPRPRPRPHSEPRP

>  <Assay target>
Escherichia coli TOP10

>  <shrunken log2 fold change>
-0.0749

$$$$
>  <Entry sequence>
RRIRMRPPRLPRPRPRPRVHPRP

>  <Assay target>
Escherichia coli TOP10

>  <shrunken log2 fold change>
0.446

$$$$
>  <Entry sequence>
RRIRDRPPRLPRPRPRPADKPRP

>  <Assay target>
Escherichia coli TOP10

>  <shrunken log2 fold change>
-0.0463

$$$$
>  <Entry sequence>
RRIRDRPPRLPRPRPRPDWSPRP

>  <Assay target>
Escherichia coli TOP10

>  <shrunken log2 fold change>
0.147

$$$$
>  <Entry sequence>
RRIRRRPPRLPRPRPRPAVFPRP

>  <Assay target>
Escherichia coli TOP10

>  <shrunken log2 fold change>
0.45

$$$$
>  <Entry sequence>
RRIRNRPPRLPRPRPRPDWYPRP

>  <Assay target>
Escherichia coli TOP10

>  <shrunken log2 fold change>
-0.0314

$$$$

GET /values?readout=shrunken log2 fold change&item= RRIRVRPPRLPRPRPRPSTKPRP
-0.213

Would you mind doing RRIRPRPPRLPRPRPRPGSQPRP as well?
0.127

Moving on to the next sequence: RRIRRRPPRLPRPRPRPWMKPRP
-0.196

Could you do the same for RRIRKRPPRLPRPRPRPWSNPRP , please?
0.202

Same for RRIRNRPPRLPRPRPRPTSQPRP
0.187

Now consider RRIRERPPRLPRPRPRPPNVPRP .
0.149

Then this sequence: RRIRARPPRLPRPRPRPVILPRP
-0.0803

====

# Test system: Escherichia coli TOP10
# Assay text: shrunken log2 fold change of peptide-encoding DNA abundance (4.5 h post-induction vs induction); higher = less antimicrobial activity (less host growth inhibition)
# Condition set: time post-induction: 4.5 h; library: site-saturation at positions 5, 18, 19, 20
Measure: shrunken log2 fold change
Just the number, please, no unit after it.

Reference set, count: 6
>  <Entry sequence>
RRIRSRPPRLPRPRPRPFIAPRP

>  <Measure>
shrunken log2 fold change

>  <Measured value>
-0.275

$$$$
>  <Entry sequence>
RRIRMRPPRLPRPRPRPEPWPRP

>  <Measure>
shrunken log2 fold change

>  <Measured value>
1.3

$$$$
>  <Entry sequence>
RRIRVRPPRLPRPRPRPEQQPRP

>  <Measure>
shrunken log2 fold change

>  <Measured value>
0.0394

$$$$
>  <Entry sequence>
RRIRRRPPRLPRPRPRPDMSPRP

>  <Measure>
shrunken log2 fold change

>  <Measured value>
-0.433

$$$$
>  <Entry sequence>
RRIRHRPPRLPRPRPRPQYRPRP

>  <Measure>
shrunken log2 fold change

>  <Measured value>
-0.0967

$$$$
>  <Entry sequence>
RRIRKRPPRLPRPRPRPDSIPRP

>  <Measure>
shrunken log2 fold change

>  <Measured value>
-0.0839

$$$$

May I ask what shrunken log2 fold change has been recorded for RRIRGRPPRLPRPRPRPCFTPRP ?
0.334

Try this sequence too: RRIRQRPPRLPRPRPRPSTRPRP
0.00434

Try RRIRGRPPRLPRPRPRPGGQPRP next.
0.672

Item: RRIRIRPPRLPRPRPRPCLKPRP
-0.16

Another: RRIRDRPPRLPRPRPRPGCAPRP
0.968

====

# Tested on: Escherichia coli TOP10
# Assay text: shrunken log2 fold change of peptide-encoding DNA abundance (4.5 h post-induction vs induction); higher = less antimicrobial activity (less host growth inhibition)
# Condition set: time post-induction: 4.5 h; library: site-saturation at positions 5, 18, 19, 20
The reader will find reported shrunken log2 fold change values listed item by item below.
Format: numeric value only, no unit, no commentary.

>  <Entry sequence>
RRIRSRPPRLPRPRPRPQEMPRP

>  <shrunken log2 fold change>
0.111

$$$$
>  <Entry sequence>
RRIRPRPPRLPRPRPRPRMKPRP

>  <shrunken log2 fold change>
-0.285

$$$$
>  <Entry sequence>
RRIRDRPPRLPRPRPRPNLVPRP

>  <shrunken log2 fold change>
-0.0615

$$$$
>  <Entry sequence>
RRIRYRPPRLPRPRPRPTDNPRP

>  <shrunken log2 fold change>
-1.05

$$$$
>  <Entry sequence>
RRIRGRPPRLPRPRPRPNRQPRP

>  <shrunken log2 fold change>
0.167

$$$$

Entry RRIRRRPPRLPRPRPRPGCIPRP : reported shrunken log2 fold change = ?
0.0498

Query RRIRTRPPRLPRPRPRPVAAPRP next
0.389

Next: RRIRVRPPRLPRPRPRPNQMPRP
-0.092

====

Overview of reported shrunken log2 fold change across a group of sequences:
# System: Escherichia coli TOP10
# Assay text: shrunken log2 fold change of peptide-encoding DNA abundance (4.5 h post-induction vs induction); higher = less antimicrobial activity (less host growth inhibition)
# Condition set: time post-induction: 4.5 h; library: site-saturation at positions 5, 18, 19, 20

>  <Entry sequence>
RRIRSRPPRLPRPRPRPWAPPRP

>  <shrunken log2 fold change>
0.0324

$$$$
>  <Entry sequence>
RRIRERPPRLPRPRPRPQTWPRP

>  <shrunken log2 fold change>
0.138

$$$$
>  <Entry sequence>
RRIRERPPRLPRPRPRPFHYPRP

>  <shrunken log2 fold change>
-0.416

$$$$
>  <Entry sequence>
RRIRIRPPRLPRPRPRPGMNPRP

>  <shrunken log2 fold change>
-0.0956

$$$$
>  <Entry sequence>
RRIRFRPPRLPRPRPRPRAVPRP

>  <shrunken log2 fold change>
0.475

$$$$
>  <Entry sequence>
RRIRRRPPRLPRPRPRPYVLPRP

>  <shrunken log2 fold change>
0.00941

$$$$
>  <Entry sequence>
RRIRCRPPRLPRPRPRPLTQPRP

>  <shrunken log2 fold change>
0.189

$$$$
>  <Entry sequence>
RRIRCRPPRLPRPRPRPPRHPRP

>  <shrunken log2 fold change>
0.646

$$$$

# returns recorded shrunken log2 fold change (system: Escherichia coli TOP10) for RRIRFRPPRLPRPRPRPDVIPRP;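 note: peptides expressed intracellularly from a pBAD plasmid library in pooled LB shake-flask culture, induced with 0.3% L-arabinose, DNA abundance read by NGS, three biological replicates, DESeq2 with apeglm shrinkage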
0.0834

Same read-out for RRIRSRPPRLPRPRPRPYPDPRP ?
-0.172

And RRIRQRPPRLPRPRPRPACGPRP ?
0.217

What would you report for RRIRSRPPRLPRPRPRPFQFPRP ?
-0.157

Same question for RRIRYRPPRLPRPRPRPYRFPRP please.
-0.168

Same again, this time with RRIRTRPPRLPRPRPRPKKPPRP
-0.0293

And the next one, RRIRCRPPRLPRPRPRPAYMPRP ?
0.119
